- Test system: gastric acid secretion
- PROCEDURE_TEXT: Inhibiting effect of gastric acid secretion, pylorus-ligated rat (Shay)
- Format: in vivo
- PROTOCOL_CONDITIONS: pylorus ligation, injected into duodenum, 5 hours, acidity (mEq/ml) to 50% of controls, read-out: Inhibiting effect of gastric acid secretion ED50, Acidity
PARAMETER: ED50

Previously resolved entries follow.
Query block: Look at this molecule and give its reported ED50. O=C(O)COc1cccc2c1O[C@H]1C[C@@H](O)[C@H](/C=C/[C@@H](O)C3CCCCC3)[C@@H]21 (relative stereo)
Result block: 0.88 mg/kg

Query block: Fill in: ED50 of O=C(O)COc1cccc2c1O[C@H]1C[C@@H](O)[C@H](/C=C/[C@@H](O)CCc3ccccc3)[C@@H]21 (relative stereo) is ___
Result block: 1.3 mg/kg

Query block: Any idea what ED50 was measured for CCCOCC(C)(C)[C@H](O)/C=C/[C@@H]1[C@H]2c3cccc(OCC(=O)O)c3O[C@H]2C[C@H]1O (relative stereo) ?
Result block: 2.01 mg/kg

Query block: What measured ED50 goes with CCCCC(C)[C@H](O)/C=C/[C@@H]1[C@H]2c3cccc(OCC(=O)O)c3O[C@H]2C[C@H]1O (relative stereo) ?
Result block: 0.27 mg/kg

Query block: Quick one: ED50 of O=C(O)COc1cccc2c1O[C@H]1C[C@@H](O)[C@H](/C=C/[C@@H](O)c3cccc(C(F)(F)F)c3)[C@@H]21 (relative stereo) ?
Result block: 1.1 mg/kg

Query block: What does the record list as ED50 for CCCCC(C)(C)[C@H](O)/C=C/[C@@H]1[C@H]2c3cccc(OCC(=O)O)c3O[C@H]2C[C@H]1O (relative stereo) ?
Result block: 1.78 mg/kg

Query block: // returns reported ED50 for input CC#CCC(C)[C@H](O)/C=C/[C@@H]1[C@H]2c3cccc(OCC(=O)O)c3O[C@H]2C[C@H]1O (relative stereo)
Result block: 0.32 mg/kg

Query block: Quick one: ED50 for O=C(O)COc1cccc2c1O[C@H]1C[C@@H](O)[C@H](/C=C/[C@@H](O)c3ccccc3)[C@@H]21 (relative stereo) ?
Result block: 0.11 mg/kg

Others:
Query block: Would you kindly share the measured ED50 for CCCCCC[C@H](O)/C=C/[C@@H]1[C@H]2c3cccc(OCC(=O)O)c3O[C@H]2C[C@H]1O (relative stereo) ?
Result block: 0.45 mg/kg

Query block: Entry under review: O=C(O)COc1cccc2c1O[C@H]1C[C@@H](O)[C@H](/C=C/[C@@H](O)CC3CCCCC3)[C@@H]21 (relative stereo) . Reported ED50?
Result block: 2.8 mg/kg

Query block: So what does the record say about ED50 for O=C(O)COc1cccc2c1O[C@H]1C[C@@H](O)[C@H](/C=C/[C@@H](O)CCC3CCCCC3)[C@@H]21 (relative stereo) ?
Result block: > 10 mg/kg

Query block: I'd like to know its ED50. The molecule in question is O=C(O)COc1cccc2c1O[C@H]1C[C@@H](O)[C@H](/C=C/[C@@H](O)c3cccc(F)c3)[C@@H]21 (relative stereo)
Result block: 0.88 mg/kg

The origin of these recorded values is patent US4775692A.
